MEASUREMENT NOTES: acute toxicity in the mouse, intraperitoneal
Type: in vivo, Souris
SETUP CONDITIONS: mouse, in vivo, ip; voie intrapéritonéale, 200 mg/kg; read-out: Mortalité %
Source text: Les produits ont été administrés par voie intrapéritonéale à des souris femelles dont le poids variait de 18 à 30 g. Les animaux injectés ont été maintenus dans une salle thermostatée, nourris et abreuvés à volonté. La mortalité a été relevée à 1 heure, 4 heures, 24 heures et 48 heures.
Listing: mortality at 48 h of selected compounds
Numbers only here, please. The scale is %.

# COMPOUND, mortality at 48 h / %
records = [
    ("CN(C)CCN1c2ccccc2C=Cc2ccccc21 [compound 20, reference compound]", 100),
    ("CN(C)CCCN1c2ccccc2C2ON=C(c3ccccc3)C2c2ccccc21 (stereo not drawn)", 40),
    ("CN(C)CCN1c2ccccc2C2ON=C(c3ccccc3)C2c2ccccc21 (stereo not drawn)", 100),
    ("OCCN1CCN(CCCN2c3ccccc3C3ON=C(c4ccccc4)C3c3ccccc32)CC1 (stereo not drawn)", 100),
    ("CN(C)CCCN1c2ccccc2-c2onc(-c3ccccc3)c2-c2ccccc21", 100),
]

Ask: Check the records and state mortality at 48 h for CN(C)CCN1c2ccccc2-c2onc(-c3ccccc3)c2-c2ccccc21
Result: 100

---

Tested on: souris femelles
MEASUREMENT NOTES: acute toxicity in the mouse, intraperitoneal
Assay type: in vivo
SETUP CONDITIONS: voie intrapéritonéale, 250 mg/kg; dead mice of the group
Property: Mortalité en 1 heure; scope: individual compounds
API doc: respond with a numeric literal and nothing else, no unit.

# COMPOUND, MEASURED ATTRIBUTE, OBS VALUE
rows = [
    ("CN(C)CCN1c2ccccc2-c2c(-c3ccccc3)nn(-c3ccccc3)c2-c2ccccc21", "Mortalité en 1 heure", 0),
    ("CN(C)CCCN1c2ccccc2-c2onc(-c3ccccc3)c2-c2ccccc21", "Mortalité en 1 heure", 4),
    ("OCCN1CCN(CCCN2c3ccccc3C3ON=C(c4ccccc4)C3c3ccccc32)CC1 (centres unmarked)", "Mortalité en 1 heure", 5),
    ("CN(C)CCN1c2ccccc2-c2onc(-c3ccccc3)c2-c2ccccc21", "Mortalité en 1 heure", 4),
]

Below: the item to evaluate.
Ask: Provide measured Mortalité en 1 heure value, entry: CN(C)CCCN1c2ccccc2C=Cc2ccccc21 [compound 21, reference compound]
Result: 5

---

MEASUREMENT NOTES: acute toxicity in the mouse, intraperitoneal
Assay type: in vivo, Souris
SETUP CONDITIONS: mouse, in vivo, ip; voie intrapéritonéale, 125 mg/kg; read-out: Mortalité %
compounds and their reported mortality at 48 h

See these solved cases before continuing.
# COMPOUND, OBS VALUE
measured = [
    ("CN(C)CCCN1c2ccccc2C=Cc2ccccc21 [compound 21, reference compound]", "100%"),
    ("c1ccc(-c2nn(-c3ccccc3)c3c2-c2ccccc2Nc2ccccc2-3)cc1", "0%"),
]

--- query ---
Ask: Note mortality at 48 h for the compound shown: OCCN1CCN(CCCN2c3ccccc3C3ON=C(c4ccccc4)C3c3ccccc32)CC1 (stereo not drawn)
Result: 40%

---

System: souris femelles
MEASUREMENT NOTES: acute toxicity in the mouse, intraperitoneal
Format: in vivo
SETUP CONDITIONS: voie intrapéritonéale, 50 mg/kg; dead mice of the group
MEASURED ATTRIBUTE: Mortalité en 48 h.

# MOLECULE, Mortalité en 48 h.
data = [
    ("CC(CN(C)C)CN1c2ccccc2C=Cc2ccccc21 (centres unmarked) [compound 22, reference compound]", 1),
    ("CN(C)CCN1c2ccccc2C=Cc2ccccc21 [compound 20, reference compound]", 0),
]

Ask: Name the recorded Mortalité en 48 h. of the molecule listed here: CN(C)CCCN1c2ccccc2-c2onc(-c3ccccc3)c2-c2ccccc21
Result: 0

Ask: For CN(C)CCCN1c2ccccc2-c2c(-c3ccccc3)nn(-c3ccccc3)c2-c2ccccc21 , write its Mortalité en 48 h..
Result: 0

Ask: Tell me its Mortalité en 48 h. given c1ccc(C2=NOC3c4ccccc4Nc4ccccc4C23)cc1 (centres unmarked) as the entry.
Result: 0
